Measured positive rate of binding (% of cells) values are reported for all entries that follow.
Target: T1, ΔCRD1-TNFR2 protein (with CRD1 deletion), on CHO-S cells (human, UniProt P20333 23-461)
T1 construct: also called CHO-SΔCRD1-TNFR2
T1 sequence: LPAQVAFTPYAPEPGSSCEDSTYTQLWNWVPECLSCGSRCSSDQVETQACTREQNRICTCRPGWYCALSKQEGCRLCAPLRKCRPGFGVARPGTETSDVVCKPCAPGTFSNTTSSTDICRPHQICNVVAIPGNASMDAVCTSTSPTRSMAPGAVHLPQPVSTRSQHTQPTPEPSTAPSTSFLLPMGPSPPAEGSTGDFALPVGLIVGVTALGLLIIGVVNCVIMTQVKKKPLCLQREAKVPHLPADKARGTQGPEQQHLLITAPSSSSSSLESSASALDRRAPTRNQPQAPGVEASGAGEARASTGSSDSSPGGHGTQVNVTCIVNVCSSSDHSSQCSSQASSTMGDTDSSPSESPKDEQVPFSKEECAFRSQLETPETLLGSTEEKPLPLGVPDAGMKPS
Assay: FACS on CHO-S cells with ΔCRD1-TNFR2, AF647 anti-human IgG Fc secondary
From the text: TNFR2 has four cysteine rich domains (CRD). In another experiment, FACS was used to detect the binding of anti-hTNFR2 antibodies to TNFR2 proteins with different structural domains. […] The fluorescence-labeled secondary antibody can attach to the Fc region of the anti-hTNFR2 antibodies so that the anti-hTNFR2 antibodies that are bound to the ΔCRD cells can be detected by FACS. […]
Kindly provide the numeric value in % only, without the unit symbol.

// below: answered binders
| binder | unitsLabel | positive rate of binding (% of cells) |
| --- | --- | --- |
| BC-1B6-IgG1-LALA (antibody, V domains shown) VH: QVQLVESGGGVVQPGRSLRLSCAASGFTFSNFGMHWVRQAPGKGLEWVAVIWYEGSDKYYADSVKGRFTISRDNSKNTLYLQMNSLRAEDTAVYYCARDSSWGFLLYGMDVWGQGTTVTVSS VL: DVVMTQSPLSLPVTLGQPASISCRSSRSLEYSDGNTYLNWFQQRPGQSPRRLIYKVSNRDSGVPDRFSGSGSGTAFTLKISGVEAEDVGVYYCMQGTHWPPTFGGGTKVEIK | % | 66.5 |
| BC-1F4-IgG1 (antibody, V domains shown, Human VH/VL joined to the human IgG1 subtype) VH: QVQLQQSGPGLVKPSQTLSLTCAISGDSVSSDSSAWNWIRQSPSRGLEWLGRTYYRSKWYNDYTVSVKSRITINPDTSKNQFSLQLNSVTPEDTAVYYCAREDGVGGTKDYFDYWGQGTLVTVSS VL: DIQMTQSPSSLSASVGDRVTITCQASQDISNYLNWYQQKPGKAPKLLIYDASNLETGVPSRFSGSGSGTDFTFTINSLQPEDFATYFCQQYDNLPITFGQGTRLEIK | % | 53.1 |
| BC-1A8-IgG1 (antibody, V domains shown, Fully human VH/VL joined to the human IgG1 subtype, kappa light chain (RenMab mice)) VH: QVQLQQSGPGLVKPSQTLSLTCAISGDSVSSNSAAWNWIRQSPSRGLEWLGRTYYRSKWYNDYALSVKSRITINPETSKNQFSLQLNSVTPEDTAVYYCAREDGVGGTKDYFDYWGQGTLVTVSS VL: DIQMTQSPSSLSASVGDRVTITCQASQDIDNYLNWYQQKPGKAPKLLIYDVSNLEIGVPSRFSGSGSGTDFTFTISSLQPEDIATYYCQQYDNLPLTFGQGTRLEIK | % | 64.6 |

Please turn your attention to the following entry.
Entry under review: BC-1C3-IgG1 (antibody, V domains shown, Human VH/VL joined to the human IgG1 subtype) VH: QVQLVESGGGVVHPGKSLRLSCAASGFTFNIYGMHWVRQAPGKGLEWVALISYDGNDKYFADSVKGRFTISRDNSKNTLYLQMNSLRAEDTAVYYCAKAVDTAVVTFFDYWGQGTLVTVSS VL: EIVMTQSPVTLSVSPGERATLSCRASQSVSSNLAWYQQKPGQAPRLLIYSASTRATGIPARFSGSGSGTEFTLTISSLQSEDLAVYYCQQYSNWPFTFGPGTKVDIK . Reported positive rate of binding (% of cells)?
72.6
